study_target: Elastase (Sus scrofa)
Sequence (P00772 27-266): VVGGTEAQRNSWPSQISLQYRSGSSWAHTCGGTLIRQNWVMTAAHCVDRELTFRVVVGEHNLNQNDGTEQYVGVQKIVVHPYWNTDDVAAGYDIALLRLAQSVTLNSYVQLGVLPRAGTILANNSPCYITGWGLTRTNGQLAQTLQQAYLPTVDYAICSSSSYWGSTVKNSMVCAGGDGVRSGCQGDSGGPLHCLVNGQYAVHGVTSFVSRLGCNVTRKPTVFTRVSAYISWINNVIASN
protocol_text: elastase inhibitory activity, spectrophotometric
Type: biochemical
Hi! Just check whether IC50 is below 20 µM. Below gives condition met, equal or above gives condition not met.

Example entries and their recorded answers appear below.
| compound | assigned_category |
| --- | --- |
| COc1ccc(/C=C/C(=O)c2c(O)cc(OC)cc2OC)cc1 [Flavokawain A] | condition not met |
| O=C1OC[C@H](Cc2cccc(O)c2)[C@H]1Cc1cccc(O)c1 [Enterolactone] | condition not met |
| COc1cc(O)c(C(=O)/C=C/c2ccc(O)cc2)c(OC)c1 [Flavokawain C] | condition met |

Field: below-cutoff. Rule: recorded IC50 strictly less than 20 µM. Subject: OC[C@H](Cc1cccc(O)c1)[C@H](CO)Cc1cccc(O)c1 [Enterodiol]
condition met

====

study_target: Collagenase
protocol_text: collagenase enzyme inhibition, spectrophotometric
test_conditions: read-out: Collagenase IC50
Hi! Just check whether IC50 is below 60 µM. Below gives Criterion met, equal or above gives Criterion not met.

| compound | study_target | assigned_category |
| --- | --- | --- |
| COc1ccc(/C=C/C(=O)c2c(O)cc(OC)cc2OC)cc1 [Flavokawain A] | Collagenase | Criterion not met |
| OC[C@H](Cc1cccc(O)c1)[C@H](CO)Cc1cccc(O)c1 [Enterodiol] | Collagenase | Criterion not met |
| O=C1OC[C@H](Cc2cccc(O)c2)[C@H]1Cc1cccc(O)c1 [Enterolactone] | Collagenase | Criterion met |

Field: below-cutoff. Rule: recorded IC50 strictly less than 60 µM. Subject: CC(C)C[C@H](NP(=O)(O)O[C@@H]1O[C@@H](C)[C@H](O)[C@@H](O)[C@H]1O)C(=O)N[C@@H](Cc1c[nH]c2ccccc12)C(=O)O [Phosphoramidon, reference compound]
Criterion not met

Also, COc1cc(O)c(C(=O)/C=C/c2ccccc2)c(OC)c1 [Flavokawain B] please.
Criterion not met

Also, COc1cc(O)c(C(=O)/C=C/c2ccc(O)cc2)c(OC)c1 [Flavokawain C] please.
Criterion not met

====

study_target: Elastase (Sus scrofa)
protocol_text: elastase inhibitory activity, spectrophotometric
Assay type: biochemical
test_conditions: read-out: Elastase IC50
Where a SMILES comes first, the peptide text is derived from it. The star is where a group is joined. MeOSuc = COC(=O)CCC(=O)*; CH2Cl = ClC*
parameter_measured: pIC50
Formally, pIC50 is defined as -log10 of the concentration c, with c in mol/L.

What does the record list as pIC50 for COC(=O)CCC(=O)N[C@@H](C)C(=O)N[C@@H](C)C(=O)N1CCC[C@H]1C(=O)N[C@H](C(=O)CCl)C(C)C [reference compound] (MeOSuc-AAPV-CH2Cl) ?
4.51
